The reported measurements were obtained from patent US20210087337A1.

# key: entry, value: EC50
Test system: S. epidermidis ATCC 35984 biofilm
assay.procedure: S. epidermidis biofilm disruption assay (MTT)
Assay type: cell-based
test.conditions: Staphylococcus epidermidis, ATCC35984; 48 h biofilm, 24 h treatment, MTT; read-out: Concentration (mg/ml) to disrupt 50% biofilm

GET /values?item= CCCCCCCCCCCCSC[C@@H](NC(C)=O)C(=O)N(CCCN)CCCN.Cl.Cl &system= S. epidermidis ATCC 35984 biofilm returns EC50: 0.01 mg/mL

Sample CCCCCCCCCCCCSC[C@H](NC(C)=O)C(=O)O , system: S. epidermidis ATCC 35984 biofilm. Its EC50 is 0.02 to 0.125 mg/mL

Measured on S. epidermidis ATCC 35984 biofilm, CCCCCCCCC/C=C\CCCCCCCCSC[C@@H](NC(C)=O)C(=O)N(CCCN)CCCN.Cl.Cl has a documented EC50 of > 2 mg/mL

Known value: S. epidermidis ATCC 35984 biofilm EC50 of the compound CC(=O)N[C@@H](CS)C(=O)O [NAC, N-acetyl cysteine, reference compound] equals > 4 mg/mL
